Quick reference for IC50 among some compounds
# Test system: S. Typhi PhoP-promoter GFP reporter, fluorescence, 4 h
# procedure.details: PhoP regulon inhibitor project modified counter assay, GFP fluorescence readout, dose response (AID 1985)

What does the data say about its IC50? Entry: "C[C@H]1O[C@@H](n2cc(F)c(=O)[nH]c2=O)[C@H](O)[C@@H]1O"
13.2 µM

What does the data say about its IC50? Entry: "Cc1cc(/C=C\c2ccc3cc(N(C)C)ccc3[n+]2C)c(C)n1-c1ccccc1"
32 µM

---
What does the data say about its IC50? Entry: "O=C(c1ccccc1)c1c2c(cc3sc4ccccc4[n+]13)-c1cccc3cccc-2c13"
77.3 µM

What does the data say about its IC50? Entry: "CCNC(=O)Oc1ccc[nH]c1=O"
99.4 µM

What does the data say about its IC50? Entry: CCN(CCNCC(O)COc1ccccc1C(C)C)c1cccc(C)c1 (stereo not given)
72.6 µM

What does the data say about its IC50? Entry: "COc1cc(CNCCO)cc(Cl)c1OCc1ccc(Cl)cc1Cl"
39 µM

What does the data say about its IC50? Entry: "C#CCOCCOCCOCCNc1nc(N2CCN(C(=O)CCCCCCCCCCNC(=O)[C@H](CCCCN)n3cc(C)nn3)CC2)nc(N2CCN(C(=O)CCCCCCCCCCNC(=O)[C@@H]([C@H](C)CC)n3cc(CCCCCN)nn3)CC2)n1"
79 µM
